- System: LOX IMVI melanoma
- Assay name: NCI tumour cell line growth inhibition, 48 h
Quantity: TGI

Observe how each entry below is paired with its result.
- [N-]=[N+]=Nc1ccc(CCN2CCN(c3cccc(C(F)(F)F)c3)CC2)cc1I: > 100 µM
- CCC(CS(=O)(=O)O)[N+](=O)[O-] (stereo unspecified): > 100 µM
- O=S(=O)(C(=Ic1ccccc1)S(=O)(=O)C(F)(F)C(F)(F)C(F)(F)C(F)(F)F)C(F)(F)C(F)(F)C(F)(F)C(F)(F)F: 28 µM

I am curious: what TGI value has been reported for O=C(CCN1CCOCC1)Nc1ccc(F)cc1F ?
> 100 µM

Would you mind telling me what TGI value was observed for O=C(c1ccccc1)C(c1ccccc1)C1(O)C(=O)Nc2ccccc21 (stereo unspecified) ?
> 100 µM

Looking for the measured TGI of CC1(c2cccc3c2C2(O)C=CC4(CCC32)OCCO4)OCCO1 (stereo unspecified) , can you help?
> 100 µM

====

- Tested on: UACC-257 melanoma
- Assay name: NCI tumour cell line growth inhibition, 48 h
Quantity: TGI

// below: answered compounds
• COc1cc2cc[n+](C)c(Cc3ccccc3)c2cc1OC = > 100 µM
• Cc1c(/C=N/NC(=S)Nc2cccc(Cl)c2)c(=O)n(-c2ccccc2)n1C = > 100 µM
• Cc1c(C)c2c(c(C)c1NC(=O)/C=C\C(=O)O)CCC(C)(CCCC(C)CCCC(C)CCCC(C)C)O2 (centres undefined) = 3.83 µM

Kindly consider the entry below.
Entry NC(=O)c1cc(-c2ccncc2)cc(-c2ccccc2)c1N : reported TGI = ?
> 25 µM

====

# TGI values compiled below
- System: DMS 114 small cell lung
- Assay name: NCI tumour cell line growth inhibition, 48 h
State the answer as a number, implicitly in µM.

- Cc1ccc(C2CC(c3ccc([N+](=O)[O-])cc3)=Nc3ccccc3S2)cc1 (centres undefined): 59
- COC1C(O)C(C)OC(OC2C(Oc3cccc4c(O)c5c(=O)oc6ccc(C)c7c(=O)oc(c34)c5c67)OC(C)C3O[C@H](c4ccccc4)OC32)C1O (some centres undefined): 2.69
- CC1=C(C)C(=O)C2=C(OCCCO2)C1=O: 33.5
- O=C(Cc1nc2ccccc2c(=O)n1-c1c(Cl)cccc1Cl)c1ccncc1: 78.6

Let's switch to this compound now.
Entry under review: COc1cc(=O)oc(/C=C/C=O)c1C . Reported TGI?
26.3

====

- Test system: MDA-MB-231 breast
- Assay name: NCI tumour cell line growth inhibition, 48 h
Quantity: TGI

Worked examples follow.
* O=[N+]([O-])c1ccc(N=Nc2c(O)ccc3cc(S(=O)(=O)O)ccc23)cc1 | > 100 µM
* N#CC(C#N)=Cc1c(-c2ccccc2)[nH]c2ccccc12 | 30.3 µM
* C[n+]1noc(/N=N\[O-])c1-c1cc(-c2c(/N=N\[O-])on[n+]2C)cc(-c2c(/N=N/[O-])on[n+]2C)c1 | > 100 µM
* Nc1ccc(-c2ncc3cc(-c4cccc(-c5cc6cnc(-c7ccc(N)cc7)nc6c6ccccc56)c4)c4ccccc4c3n2)cc1 | > 100 µM
* Cc1nc(Cl)c(Cl)c(Cl)n1 | 0.656 µM

What value of TGI has been reported for the following molecule? COc1cc(/C=N/Nc2ncnc3c2cnn3C(C)C)ccc1O
> 25 µM
